Give measured pIC50 for each item. Keep answers brief.
# system.under.test: human PAR4 (Homo sapiens, UniProt Q96RI0)
# Construct: expressed in transfected cells; host or cells: HEK293 PAR4 Clone 1.2A (BMS Arctic ID 383940)
# method.notes: PAR4 FLIPR assay: antagonism of agonist-peptide-induced calcium mobilization in PAR4-expressing HEK293 cells
# Type: cell-based
# settings: H-Ala-Phe(4-F)-[…]NH2-induced intracellular calcium mobilization, 11-point curves
Counter-ions that a name gives are not always drawn.
Answers are plain numbers, as −log10 of the molar value.

The cases that follow already have their pIC50 on record.
INSERT INTO measurements (compound, system_under_test, endpoint_value) VALUES
  ('COCc1cnc2c(-c3nc4c(F)c(F)c(OCCNS(=O)(=O)c5cccc(F)c5)cc4s3)cc(C)cc2n1', 'human PAR4 (Homo sapiens, UniProt Q96RI0)', 8.35),
  ('Cc1cc(-c2nc3cc(F)c(O[C@@H](C)[C@@H](C)OC(=O)Nc4cnc(C)nc4)cc3s2)c2ncc(OC(F)F)nc2c1', 'human PAR4 (Homo sapiens, UniProt Q96RI0)', 8.29),
  ('COc1cnc2c(-c3nc4cc(F)c(O[C@@H](C)[C@@H](C)OC(=O)Nc5ccnc(C(=O)NCCC(C)(C)O)c5)cc4s3)cc(C)cc2n1', 'human PAR4 (Homo sapiens, UniProt Q96RI0)', 9.05);

Provide reported pIC50 for each item, in the same order as listed.
1. COc1cnc2c(-c3nc4cc(F)c(O[C@@H](C)[C@@H](C)OC(=O)Nc5ccnc(CO)c5)nc4s3)cc(C)cc2n1
2. COc1cc(C(O)C(F)(F)F)c2nc(-c3cc(C)cc4nc(OC)cnc34)sc2c1 (single isomer, unassigned) [Example 633]
3. COc1cncc2nc(-c3cc(C)cc4nc(OC(F)F)cnc34)sc12
4. COc1cnc2c(-c3nc4cc(F)c(O[C@@H](C)[C@@H](C)OC(=O)Nc5cnc(OCCO)nc5)nc4s3)cc(C)cc2c1
5. COc1cnc2c(-c3nc4cc(F)c(O[C@@H](C)[C@@H](C)OC(=O)Nc5ccc(C(=O)O)nc5)cc4s3)cc(C)cc2n1 [Example 523, TFA]
6. CNC(=O)c1ccc(NC(=O)O[C@H](C)[C@H](C)Oc2cc3sc(-c4cc(Cl)cc5nc(OC)cnc45)nc3cc2F)cn1
7. COc1cnc2c(-c3nc4cc(F)c(O[C@@H](C)[C@@H](C)OC(=O)Nc5cnc(C)nc5)cc4s3)cc(C(F)F)cc2c1

Out:
8.62
8.59
8.70
9.10
8.59
8.60
9.08

----------
# system.under.test: human PAR4 (Homo sapiens, UniProt Q96RI0)
# method.notes: PAR4 FLIPR assay: antagonism of agonist-peptide-induced calcium mobilization in PAR4-expressing HEK293 cells
# settings: H-Ala-Phe(4-F)-[…]NH2-induced intracellular calcium mobilization, 11-point curves
Give measured pIC50 for each item. Keep answers brief.
Answers are plain numbers, as −log10 of the molar value.

The cases that follow already have their pIC50 on record.
INSERT INTO measurements (compound, system_under_test, endpoint_value) VALUES
  ('COc1cnc2c(-c3nc4c(C)cc(OCCNS(=O)(=O)c5ccc(C)cc5)cc4s3)cc(C)cc2n1', 'human PAR4 (Homo sapiens, UniProt Q96RI0)', 8.70),
  ('COc1cnc2c(-c3nc4c(Cl)c(F)c(OC[C@@H](C)OC(=O)Nc5cnc(Cl)nc5)cc4s3)cc(C)cc2n1', 'human PAR4 (Homo sapiens, UniProt Q96RI0)', 8.57),
  ('COc1cnc2c(-c3nc4cc(F)c(O[C@@H](C)[C@@H](C)OC(=O)Nc5ccc(N)nc5)cc4s3)cc(C)cc2n1', 'human PAR4 (Homo sapiens, UniProt Q96RI0)', 8.19);

Provide reported pIC50 for each item, in the same order as listed.
1. COc1cnc2c(-c3nc4c(C)cc(OC[C@@H](C)OC(=O)Nc5cnc(Cl)nc5)nc4s3)cc(C)cc2n1
2. Cc1cc(-c2nc3cccc(NC(=O)OCC4CCCO4)c3s2)c2ncc(OC(F)F)nc2c1 (centres unmarked)
3. COCc1cnc2c(-c3nc4cnccc4s3)cc(C)cc2n1
4. COc1cnc2c(-c3nc4cc(F)c(OC)cc4s3)cc(C)cc2n1
5. COCc1cnc2c(-c3nc4c(C(O)CC(F)(F)F)cc(OC)cc4s3)cc(C)cc2n1 (centres unmarked)

Out:
1. 8.28
2. 8.74
3. 8.15
4. 8.37
5. 8.57

----------
Give measured IC50 for each item. Keep answers brief.
# system.under.test: human PAR4 (Homo sapiens)
# method.notes: PAR4 FLIPR assay: antagonism of agonist-peptide-induced calcium mobilization in PAR4-expressing HEK293 cells
# settings: H-Ala-Phe(4-F)-[…]NH2-induced intracellular calcium mobilization, 11-point curves
Answers are plain numbers, in nM.

The cases that follow already have their IC50 on record.
INSERT INTO results (molecule, endpoint_value) VALUES
  ('COc1cnc2c(-c3nc4c(Cl)c(F)c(OC[C@@H](C)OC(=O)Nc5nnc(C)s5)cc4s3)cc(C)cc2n1', 5.8),
  ('COCc1cnc2c(-c3nc4c(C(O)c5ccncc5)cc(OC)cc4s3)cc(C)cc2n1 (stereo not drawn)', 1.7),
  ('COc1cc(C(O)C2CC2)c2nc(-c3cc(C)cc4nc(OC)cnc34)sc2c1 (stereo not drawn)', 1.2),
  ('CCOc1ccc2nc(-c3cc(C)cc4nc(COC)cnc34)sc2c1', 0.8),
  ('COC(=O)c1ccc(NC(=O)OCCOc2cc3sc(-c4cc(C)cc5nc(OC)cnc45)nc3c(Cl)c2F)cn1', 5.5),
  ('COCc1cnc2c(-c3nc4c(C)c(F)c(O)cc4s3)cc(C)cc2n1', 6),
  ('COc1cnc2c(-c3nc4cc(F)c(OC[C@@H](C)OC(=O)Nc5cnc(C(C)(C)O)nc5)cc4s3)cc(C)cc2n1', 1.3),
  ('COCc1cnc2c(-c3nc4c(F)c(F)c(OC)cc4s3)cc(C)cc2n1', 0.8);

Provide reported IC50 for each item, in the same order as listed.
1. COc1cnc2c(-c3nc4c(Cl)c(F)c(OCCOC(=O)Nc5nnc(C)o5)cc4s3)cc(C)cc2n1
2. COc1cnc2c(-c3nc4cc(F)c(O[C@@H](C)[C@@H](C)OC(=O)Nc5cnc(OC)c(C)c5)cc4s3)cc(C)cc2n1
3. COc1cnc2c(-c3nc4c(Cl)c(F)c(OCCOC(N)=O)cc4s3)cc(C)cc2n1
4. COc1cnc2c(-c3nc4cc(F)c(OC[C@@H](C)OC(=O)Nc5ccc6[nH]c(=O)oc6c5)cc4s3)cc(C)cc2n1
5. COC(=O)c1ncc(NC(=O)O[C@H](C)[C@H](C)Oc2nc3sc(-c4cc(C)cc5nc(OC)cnc45)nc3cc2F)cn1
6. CCOc1cnc2c(-c3nc4cc(F)c(O[C@@H](C)[C@@H](C)OC(=O)Nc5cnc(OCCO)nc5)cc4s3)cc(Cl)cc2c1
7. COc1cnc2c(-c3nc4c(C)cc(OCCNS(=O)(=O)c5ccc(F)cc5)cc4s3)cc(C(O)c3ccccc3)cc2n1 (stereo not drawn)

Out:
[550, 2.2, 270, 2.8, 3.2, 1.1, 72]

----------
# system.under.test: human PAR4 (Homo sapiens)
# Sequence (Q96RI0 18-385): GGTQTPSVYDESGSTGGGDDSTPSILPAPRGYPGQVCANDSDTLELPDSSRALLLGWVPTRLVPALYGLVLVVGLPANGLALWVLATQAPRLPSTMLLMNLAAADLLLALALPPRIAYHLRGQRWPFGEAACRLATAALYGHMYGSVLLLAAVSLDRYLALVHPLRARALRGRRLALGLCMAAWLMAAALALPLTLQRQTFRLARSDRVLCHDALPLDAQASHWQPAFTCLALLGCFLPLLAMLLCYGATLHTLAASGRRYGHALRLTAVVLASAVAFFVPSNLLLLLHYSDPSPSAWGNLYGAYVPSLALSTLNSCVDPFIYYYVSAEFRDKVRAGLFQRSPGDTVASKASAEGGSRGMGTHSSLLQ
# method.notes: PAR4 FLIPR assay: antagonism of agonist-peptide-induced calcium mobilization in PAR4-expressing HEK293 cells
# settings: H-Ala-Phe(4-F)-[…]NH2-induced intracellular calcium mobilization, 11-point curves
Just a reminder that ties go to n: only IC50 strictly below 4 nM counts as y.

INSERT INTO assay_data (compound, system_under_test, assigned_category) VALUES
  ('Cc1cc(-c2nc3c(C)cccc3s2)c2ncc(OC(F)F)nc2c1', 'human PAR4 (Homo sapiens)', 'n');

In: Lab note: confirm whether the reported IC50 for this compound is below 4 nM, equality not counting. compound: "COc1cnc2c(-c3nc4c(Cl)c(F)c(OC[C@@H](C)OC(=O)Nc5cccnc5)cc4s3)cc(C)cc2n1"
Out: y

In: Lab note: confirm whether the reported IC50 for this compound is below 4 nM, equality not counting. compound: COCc1cnc2c(-c3nc4ccc(OC)cc4s3)cc(Cl)cc2n1 [Example 201]
Out: y

In: Lab note: confirm whether the reported IC50 for this compound is below 4 nM, equality not counting. compound: "COCc1cnc2c(-c3nc4ccc(OCCNS(=O)(=O)c5ccc(F)cc5)cc4s3)cc(C)cc2n1"
Out: y

In: Lab note: confirm whether the reported IC50 for this compound is below 4 nM, equality not counting. compound: COCc1cnc2c(-c3nc4c(C(O)C5CC5)cc(OC)cc4s3)cc(C)cc2n1 (centres unmarked)
Out: y

In: Lab note: confirm whether the reported IC50 for this compound is below 4 nM, equality not counting. compound: "Cc1cc(-c2nc3ncccc3s2)c2ncc(OC(F)F)nc2c1"
Out: n

In: Lab note: confirm whether the reported IC50 for this compound is below 4 nM, equality not counting. compound: "Cc1cc(-c2nc3cccc(NC(=O)OC(C)(C)C)c3s2)c2ncc(OC(F)F)nc2c1"
Out: n

In: Lab note: confirm whether the reported IC50 for this compound is below 4 nM, equality not counting. compound: "CNc1cnc2c(-c3nc4cc(F)c(O[C@@H](C)[C@@H](C)OC(=O)Nc5cnc(C)nc5)cc4s3)cc(C)cc2n1"
Out: y
